- target_or_test_system: Δ508/G551D-HBE (Homo sapiens, UniProt P13569, G551D)
- Sequence (P13569 whole entry G551D, stated change not applied): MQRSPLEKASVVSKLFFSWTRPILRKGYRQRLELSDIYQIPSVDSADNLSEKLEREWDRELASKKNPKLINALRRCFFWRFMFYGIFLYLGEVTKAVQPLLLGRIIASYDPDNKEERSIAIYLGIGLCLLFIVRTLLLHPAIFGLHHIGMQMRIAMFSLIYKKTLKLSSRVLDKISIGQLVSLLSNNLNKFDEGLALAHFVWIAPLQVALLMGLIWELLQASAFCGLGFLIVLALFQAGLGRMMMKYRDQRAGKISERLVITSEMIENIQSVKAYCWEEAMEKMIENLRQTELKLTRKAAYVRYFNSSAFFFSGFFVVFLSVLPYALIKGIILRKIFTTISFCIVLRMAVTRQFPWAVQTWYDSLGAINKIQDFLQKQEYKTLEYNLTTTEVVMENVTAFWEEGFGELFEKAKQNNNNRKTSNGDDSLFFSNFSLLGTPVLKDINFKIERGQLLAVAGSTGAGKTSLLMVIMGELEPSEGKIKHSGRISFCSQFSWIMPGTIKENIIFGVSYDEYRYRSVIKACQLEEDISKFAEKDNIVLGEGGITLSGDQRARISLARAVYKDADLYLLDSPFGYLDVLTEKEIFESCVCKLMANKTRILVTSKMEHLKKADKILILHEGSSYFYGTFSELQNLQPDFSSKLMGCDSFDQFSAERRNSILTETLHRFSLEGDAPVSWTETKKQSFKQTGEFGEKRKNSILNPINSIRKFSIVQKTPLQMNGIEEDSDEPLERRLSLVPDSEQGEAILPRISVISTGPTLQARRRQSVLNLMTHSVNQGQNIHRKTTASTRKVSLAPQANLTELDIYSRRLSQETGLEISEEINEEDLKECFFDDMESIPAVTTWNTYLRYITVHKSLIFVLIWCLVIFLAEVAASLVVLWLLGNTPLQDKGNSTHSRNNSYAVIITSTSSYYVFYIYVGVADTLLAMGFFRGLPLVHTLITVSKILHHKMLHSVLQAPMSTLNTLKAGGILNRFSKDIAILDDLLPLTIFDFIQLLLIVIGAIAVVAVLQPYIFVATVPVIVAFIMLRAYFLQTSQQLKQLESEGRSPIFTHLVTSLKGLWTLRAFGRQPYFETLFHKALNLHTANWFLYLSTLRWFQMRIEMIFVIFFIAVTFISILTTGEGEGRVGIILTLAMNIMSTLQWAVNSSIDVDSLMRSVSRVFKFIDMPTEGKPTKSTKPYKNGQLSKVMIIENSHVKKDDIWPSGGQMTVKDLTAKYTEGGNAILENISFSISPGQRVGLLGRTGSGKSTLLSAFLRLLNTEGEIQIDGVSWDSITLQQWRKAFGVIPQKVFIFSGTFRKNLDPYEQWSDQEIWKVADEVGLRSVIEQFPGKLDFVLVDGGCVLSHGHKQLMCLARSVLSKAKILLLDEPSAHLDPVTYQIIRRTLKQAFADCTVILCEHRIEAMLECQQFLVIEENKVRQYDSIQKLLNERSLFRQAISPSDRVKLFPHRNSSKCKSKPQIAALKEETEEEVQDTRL
- Sequence (P13569 whole entry G551D, stated change not applied): as above
- test_description: Ussing chamber assay, Δ508/G551D-HBE
pEC50: −log10 of the molar value.
observed_property: pEC50

Supply measured pEC50 of `CC(C)(C)c1cc(C(C)(C)C(=O)O)c(O)cc1NC(=O)c1c[nH]c2ccccc2c1=O` in your reply.
5.30 to 5.70

Return value of pEC50 for input `CC(C)(C)c1cc(C(C)(C)CO)c(O)cc1NC(=O)c1c[nH]c2ccccc2c1=O` , no commentary.
> 5.70

* * *

Record form. Attribute: EC50. Fill in for each entry.
- target_or_test_system: ΔF508-CFTR in HBE (Homo sapiens, UniProt P13569, DEL508-508)
- Construct: CF-HBE were isolated from patients homozygous for ΔF508-CFTR; endogenous in cells
- Sequence (P13569 with tags, fused parts or gaps DEL508-508): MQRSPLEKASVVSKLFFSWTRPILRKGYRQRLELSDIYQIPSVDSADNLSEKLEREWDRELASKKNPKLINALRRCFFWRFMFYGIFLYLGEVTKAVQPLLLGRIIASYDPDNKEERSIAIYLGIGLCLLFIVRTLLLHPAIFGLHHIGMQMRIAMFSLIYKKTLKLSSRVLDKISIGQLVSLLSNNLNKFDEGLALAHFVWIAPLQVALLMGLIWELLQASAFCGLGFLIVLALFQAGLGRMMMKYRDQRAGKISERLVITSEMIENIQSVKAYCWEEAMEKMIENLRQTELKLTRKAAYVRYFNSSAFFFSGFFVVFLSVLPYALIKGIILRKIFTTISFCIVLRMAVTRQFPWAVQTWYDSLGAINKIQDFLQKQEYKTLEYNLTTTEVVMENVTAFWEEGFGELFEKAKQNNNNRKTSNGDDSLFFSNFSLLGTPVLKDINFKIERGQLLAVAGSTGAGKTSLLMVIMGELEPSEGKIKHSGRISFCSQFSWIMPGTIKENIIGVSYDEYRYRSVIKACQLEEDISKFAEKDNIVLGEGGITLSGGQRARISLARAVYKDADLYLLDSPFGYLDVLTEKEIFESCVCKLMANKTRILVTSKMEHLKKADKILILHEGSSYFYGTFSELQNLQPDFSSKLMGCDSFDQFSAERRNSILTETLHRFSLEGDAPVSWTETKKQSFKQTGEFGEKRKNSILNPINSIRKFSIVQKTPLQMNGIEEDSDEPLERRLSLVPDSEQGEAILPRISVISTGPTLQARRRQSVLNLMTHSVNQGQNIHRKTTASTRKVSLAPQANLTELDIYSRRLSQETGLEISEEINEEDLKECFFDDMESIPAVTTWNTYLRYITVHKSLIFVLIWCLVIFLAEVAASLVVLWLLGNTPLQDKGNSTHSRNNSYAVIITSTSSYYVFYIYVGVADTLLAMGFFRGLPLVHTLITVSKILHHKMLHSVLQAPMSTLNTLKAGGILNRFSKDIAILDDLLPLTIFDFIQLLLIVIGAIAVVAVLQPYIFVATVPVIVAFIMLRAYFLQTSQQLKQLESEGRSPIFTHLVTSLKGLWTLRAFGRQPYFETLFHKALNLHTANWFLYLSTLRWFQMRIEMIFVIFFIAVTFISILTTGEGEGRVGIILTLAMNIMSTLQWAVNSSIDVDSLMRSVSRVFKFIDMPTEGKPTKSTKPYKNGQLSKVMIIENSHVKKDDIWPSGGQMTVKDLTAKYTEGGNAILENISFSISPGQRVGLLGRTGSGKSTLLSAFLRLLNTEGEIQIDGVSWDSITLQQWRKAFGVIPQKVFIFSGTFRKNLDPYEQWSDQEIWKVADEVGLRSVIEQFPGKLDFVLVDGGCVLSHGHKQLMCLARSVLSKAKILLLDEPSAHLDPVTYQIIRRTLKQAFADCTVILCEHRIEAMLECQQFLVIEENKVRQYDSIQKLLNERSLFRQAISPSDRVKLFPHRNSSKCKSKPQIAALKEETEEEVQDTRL
- test_description: Ussing chamber assay, Δ508-HBE
- test_settings: HBE from patients homozygous for ΔF508-CFTR
- Experimental: Ussing chamber experiments were performed on polarized airway epithelial cells expressing ΔF508-CFTR to further characterize the ΔF508-CFTR modulators identified in the optical assays. […]

Supply recorded EC50 for CC(C)(C)c1cc(C(C)(C)C(=O)O)c(O)cc1NC(=O)c1c[nH]c2ccccc2c1=O [Compound 28] here.
< 2000 nM

Supply reported EC50 belonging to this compound: CC(C)(C)c1cc(C(C)(C)CO)c(O)cc1NC(=O)c1c[nH]c2ccccc2c1=O [Compound 27]
< 2000 nM
